- Tested on: frog (Rana pipiens)
- Assay type: cell-based
Non-standard residues stand in square brackets, D forms with d. Residues, ends and D or L forms follow the SMILES beside them. Phe(4-NO2) = N[C@@H](Cc1ccc([N+](=O)[O-])cc1)C(=O)O; dPhg = N[C@@H](C(=O)O)c1ccccc1; Nle = CCCC[C@H](N)C(=O)O
Threshold 0.005: Relative Potency Frog strictly smaller gives condition met, otherwise condition not met.

CSCC[C@H](NC(C)=O)C(=O)N[C@@H](CCC(=O)O)C(=O)N[C@@H](Cc1c[nH]cn1)C(=O)N[C@H](C)C(=O)N[C@@H](CCCNC(=N)N)C(=O)N[C@@H](Cc1c[nH]c2ccccc12)C(=O)NCC(=O)N[C@@H](CCCCN)C(N)=O [Ac--[D-Ala^7]--alpha-MSH4-11 --NH2] (Ac-MEH[dA]RWGK-NH2)
condition met
CCCC[C@H](NC(C)=O)C(=O)N[C@@H](CCC(=O)O)C(=O)N[C@@H](Cc1c[nH]cn1)C(=O)N[C@@H](C(=O)N[C@@H](CCCNC(=N)N)C(=O)N[C@@H](Cc1c[nH]c2ccccc12)C(=O)NCC(=O)N[C@@H](CCCCN)C(N)=O)c1ccccc1 (Ac-[Nle]EH[dPhg]RWGK-NH2)
condition met
CCCC[C@H](NC(C)=O)C(=O)N[C@@H](CCC(=O)O)C(=O)N[C@@H](Cc1c[nH]cn1)C(=O)N[C@@H](Cc1ccc([N+](=O)[O-])cc1)C(=O)N[C@@H](CCCNC(=N)N)C(=O)N[C@@H](Cc1c[nH]c2ccccc12)C(=O)NCC(=O)N[C@@H](CCCCN)C(N)=O (Ac-[Nle]EH[Phe(4-NO2)]RWGK-NH2)
condition met

Relative Potency Frog under 0.005? Item: CCCC[C@H](NC(C)=O)C(=O)N[C@@H](CCC(=O)O)C(=O)N[C@@H](Cc1c[nH]cn1)C(=O)N[C@@H](Cc1ccccc1)C(=O)N[C@@H](CCCNC(=N)N)C(=O)N[C@H](Cc1c[nH]c2ccccc12)C(=O)NCC(=O)N[C@@H](CCCCN)C(N)=O (Ac-[Nle]EHFR[dW]GK-NH2)
condition not met

Consider the compound CC(=O)N[C@@H](Cc1ccc(O)cc1)C(=O)N[C@@H](CCC(=O)O)C(=O)N[C@@H](Cc1c[nH]cn1)C(=O)N[C@H](Cc1ccccc1)C(=O)N[C@@H](CCCNC(=N)N)C(=O)N[C@@H](Cc1c[nH]c2ccccc12)C(=O)NCC(=O)N[C@@H](CCCCN)C(N)=O (Ac-YEH[dF]RWGK-NH2) . Is its Relative Potency Frog strictly less than 0.005?
condition not met

---

Below, each entry is listed alongside its reported Relative Potency Frog.
- Test system: frog (Rana pipiens)
- Type: cell-based
Non-standard residues stand in square brackets, D forms with d. Residues, ends and D or L forms follow the SMILES beside them. *: point of attachment. Nle = CCCC[C@H](N)C(=O)O; For = O=C*

CCCC[C@H](NC(C)=O)C(=O)N[C@@H](CCC(=O)O)C(=O)N[C@@H](Cc1c[nH]cn1)C(=O)N[C@@H](C)C(=O)N[C@@H](CCCNC(=N)N)C(=O)N[C@@H](Cc1c[nH]c2ccccc12)C(=O)NCC(=O)N[C@@H](CCCCN)C(N)=O (Ac-[Nle]EHARWGK-NH2)
0.02
CCCC[C@H](NC(C)=O)C(=O)N[C@@H](CCC(=O)O)C(=O)N[C@@H](Cc1c[nH]cn1)C(=O)N[C@H](C)C(=O)N[C@@H](CCCNC(=N)N)C(=O)N[C@@H](Cc1c[nH]c2ccccc12)C(=O)NCC(=O)N[C@@H](CCCCN)C(N)=O (Ac-[Nle]EH[dA]RWGK-NH2)
0.000080
CCCC[C@H](NC(C)=O)C(=O)N[C@@H](CCC(=O)O)C(=O)N[C@@H](Cc1c[nH]cn1)C(=O)N[C@H](Cc1ccccc1)C(=O)N[C@H](CCCNC(=N)N)C(=O)N[C@@H](Cc1c[nH]c2ccccc12)C(=O)NCC(=O)N[C@@H](CCCCN)C(N)=O (Ac-[Nle]EH[dF][dR]WGK-NH2)
0.00010
CCCC[C@H](NC(C)=O)C(=O)N[C@@H](CCC(=O)O)C(=O)N[C@@H](Cc1c[nH]cn1)C(=O)N[C@H](Cc1ccccc1)C(=O)N[C@@H](CCCNC(=N)N)C(=O)N[C@@H](Cc1cn(C=O)c2ccccc12)C(=O)NCC(=O)N[C@@H](CCCCN)C(N)=O (Ac-[Nle]EH[dF]RW(For)GK-NH2)
0.033

Next molecule, Relative Potency Frog to be filled in.
Data point: CC(=O)N[C@@H](CCC(=O)O)C(=O)N[C@@H](Cc1c[nH]cn1)C(=O)N[C@H](Cc1ccccc1)C(=O)N[C@@H](CCCNC(=N)N)C(=O)N[C@@H](Cc1c[nH]c2ccccc12)C(=O)NCC(=O)N[C@@H](CCCCN)C(N)=O [Ac--[D-Phe^7]--alpha-MSH5-11 --NH2] (Ac-EH[dF]RWGK-NH2) ; Relative Potency Frog = 0.01

---

- Test system: frog (Rana pipiens)
- Format: cell-based
- Procedure: Biological effect on in vivo and in vitro melanosome dispersion was examined using the frog (Rana pipiens) and the lizard (Anolis caroliniensis). [See Hadley et al., Science 213:1025-1027(1981)]; similar examinations were conducted with respect to the duration of its ability to stimulate melanosome dispersion in vitro using the skin bioassay as described in Shimume, Endrochrinology, 54:553-560(1954). The in vitro results are depicted in Table I.
Non-standard residues stand in square brackets, D forms with d. Residues, ends and D or L forms follow the SMILES beside them. Phe(4-NO2) = N[C@@H](Cc1ccc([N+](=O)[O-])cc1)C(=O)O; Nle = CCCC[C@H](N)C(=O)O
MEASUREMENT LABEL: Relative Potency Frog
Reply: number alone, nothing else.

CCCC[C@H](NC(C)=O)C(=O)N[C@@H](CCC(=O)O)C(=O)N[C@@H](Cc1c[nH]cn1)C(=O)N[C@@H](Cc1ccccc1)C(=O)N[C@H](CCCNC(=N)N)C(=O)N[C@@H](Cc1c[nH]c2ccccc12)C(=O)NCC(=O)N[C@@H](CCCCN)C(N)=O (Ac-[Nle]EHF[dR]WGK-NH2)
0.000016

With frog (Rana pipiens) as the test system, CCCC[C@H](NC(C)=O)C(=O)N[C@@H](CCC(=O)O)C(=O)N[C@@H](Cc1c[nH]cn1)C(=O)N[C@H](Cc1ccccc1)C(=O)N[C@@H](CCCNC(=N)N)C(=O)N[C@H](Cc1c[nH]c2ccccc12)C(=O)NCC(=O)N[C@@H](CCCCN)C(N)=O (Ac-[Nle]EH[dF]R[dW]GK-NH2) showed Relative Potency Frog of 3.17

Log: frog (Rana pipiens), molecule CSCC[C@H](NC(C)=O)C(=O)N[C@@H](CCC(=O)O)C(=O)N[C@@H](Cc1c[nH]cn1)C(=O)N[C@@H](Cc1ccc([N+](=O)[O-])cc1)C(=O)N[C@@H](CCCNC(=N)N)C(=O)N[C@@H](Cc1c[nH]c2ccccc12)C(=O)NCC(=O)N[C@@H](CCCCN)C(N)=O [Ac--[Phe(pNO2)^7]--alpha-MSH4-11 --NH2] (Ac-MEH[Phe(4-NO2)]RWGK-NH2) , Relative Potency Frog = 0.0003

---

Here, each record is paired with measured Relative Potency Frog data.
- System: frog (Rana pipiens)
- Assay type: cell-based
Non-standard residues stand in square brackets, D forms with d. Residues, ends and D or L forms follow the SMILES beside them. dPhe(4-NO2) = N[C@H](Cc1ccc([N+](=O)[O-])cc1)C(=O)O; Nle = CCCC[C@H](N)C(=O)O
// return just the number, without any unit appended

CCCC[C@H](NC(C)=O)C(=O)N[C@@H](CCC(=O)O)C(=O)N[C@@H](Cc1c[nH]cn1)C(=O)N[C@@H](Cc1ccccc1)C(=O)N[C@@H](CCCNC(=N)N)C(=O)N[C@@H](Cc1c[nH]c2ccccc12)C(=O)NCC(=O)N[C@@H](CCCCN)C(N)=O [Ac--[Nle^4]-alpha-MSH4-11 --NH2] (Ac-[Nle]EHFRWGK-NH2)
0.0019
CCCC[C@H](NC(C)=O)C(=O)N[C@@H](CCC(=O)O)C(=O)N[C@@H](Cc1c[nH]cn1)C(=O)N[C@H](Cc1ccc([N+](=O)[O-])cc1)C(=O)N[C@@H](CCCNC(=N)N)C(=O)N[C@@H](Cc1c[nH]c2ccccc12)C(=O)NCC(=O)N[C@@H](CCCCN)C(N)=O (Ac-[Nle]EH[dPhe(4-NO2)]RWGK-NH2)
0.10
CCCC[C@H](NC(C)=O)C(=O)N[C@@H](CCC(=O)O)C(=O)N[C@@H](Cc1c[nH]cn1)C(=O)N[C@@H](Cc1ccccc1)C(=O)N[C@@H](CCCNC(=N)N)C(=O)N[C@@H](Cc1c[nH]c2ccccc12)C(N)=O [Ac--[Nle^4 --alpha-MSH4-9 --NH2] (Ac-[Nle]EHFRW-NH2)
0.0007

Continue with the next molecule.
CCCC[C@H](NC(C)=O)C(=O)N[C@@H](CCC(=O)O)C(=O)N[C@@H](Cc1c[nH]cn1)C(=O)N[C@H](Cc1ccccc1)C(=O)N[C@@H](CCCNC(=N)N)C(=O)N[C@H](Cc1c[nH]c2ccccc12)C(N)=O (Ac-[Nle]EH[dF]R[dW]-NH2) yielded Relative Potency Frog of 0.03
